Biological target: human V2 receptor (Homo sapiens)
Sequence (P30518 whole entry): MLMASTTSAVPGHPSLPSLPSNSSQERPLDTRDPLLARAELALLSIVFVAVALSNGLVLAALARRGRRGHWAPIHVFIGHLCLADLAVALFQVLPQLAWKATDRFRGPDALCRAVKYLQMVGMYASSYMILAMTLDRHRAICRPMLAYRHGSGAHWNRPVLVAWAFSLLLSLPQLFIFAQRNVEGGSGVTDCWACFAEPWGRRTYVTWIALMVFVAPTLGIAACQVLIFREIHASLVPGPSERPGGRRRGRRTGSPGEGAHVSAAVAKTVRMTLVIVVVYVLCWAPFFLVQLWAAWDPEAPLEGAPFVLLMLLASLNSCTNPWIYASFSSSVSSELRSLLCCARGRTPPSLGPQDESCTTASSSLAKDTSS
Test: Calcium flux assay (FLIPR) in CHO cells expressing human V2+Gqs5
Settings: agonist mode, CHO cells with chimeric Gqs5, calcium flux FLIPR; read-out: hV2 EC50
*1 amine or outer side, *2 acyl side, *3 side chain or, on linkers, in order; H or OH if unused. Where a SMILES comes first, the peptide text is derived from it. Bridges are numbered along the chain shown (N, C = ends). [ ]: non-standard residue; d: D form. Hcy(O2-CH2CH2CO) = O=C([C@H](CCS(=O)(=O)CCC(=O)[*:3])N[*:1])[*:2]; αMeL = CC(C)C[C@](C)(N)C(=O)O; Chg = N[C@H](C(=O)O)C1CCCCC1; NcPrGly = O=C(O)CNC1CC1
Property measured: EC50 (µM)
Respond with the bare value in µM.

{"Molecule": "CC[C@H](C)[C@@H]1NC(=O)[C@H](Cc2ccc(O)cc2)NC(=O)CCS(=O)(=O)CC[C@@H](C(=O)N(CC(=O)N[C@H](C(=O)NCC(N)=O)C2CCCCC2)C2CC2)NC(=O)[C@H](CC(N)=O)NC(=O)[C@H](CCC(N)=O)NC1=O [Example 32] (YIQN[Hcy(O2-CH2CH2CO)][NcPrGly][Chg]G-NH2; lactam N-5)", "Endpoint result": 2.36}

We next turn to a different molecule, shown below.
Ask: Quickly give me recorded EC50 for CC[C@H](C)[C@@H]1NC(=O)[C@H](Cc2ccc(O)cc2)NC(=O)CCS(=O)(=O)CC[C@@H](C(=O)N(CC(=O)N[C@@](C)(CC(C)C)C(=O)NCC(N)=O)C2CC2)NC(=O)[C@H](CC(N)=O)NC(=O)[C@H](CCC(N)=O)NC1=O [Example 28] (YIQN[Hcy(O2-CH2CH2CO)][NcPrGly][αMeL]G-NH2; lactam N-5)
Result: 9.42

###

Biological target: human Oxytocin (OTR) receptor (Homo sapiens, UniProt P30559)
Construct: expressed in transfected cells
Sequence (P30559 1-389): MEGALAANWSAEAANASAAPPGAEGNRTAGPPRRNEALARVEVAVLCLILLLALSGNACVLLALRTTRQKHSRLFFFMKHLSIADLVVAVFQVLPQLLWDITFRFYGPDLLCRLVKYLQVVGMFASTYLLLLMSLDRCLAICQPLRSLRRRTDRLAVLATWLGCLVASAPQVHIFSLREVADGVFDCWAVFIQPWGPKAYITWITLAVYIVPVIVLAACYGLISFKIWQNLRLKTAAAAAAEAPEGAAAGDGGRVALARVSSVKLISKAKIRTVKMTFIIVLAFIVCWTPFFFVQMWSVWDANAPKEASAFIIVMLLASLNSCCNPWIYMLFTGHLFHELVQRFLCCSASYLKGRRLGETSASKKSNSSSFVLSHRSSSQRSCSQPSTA
Test: Calcium flux assay (FLIPR) in CHO cells expressing human OTR
Assay type: cell-based
Settings: maximum response normalized to endogenous full agonist = 100%
Source text: Chines Hamster Ovary (CHO) cells were transfected with expression plasmids encoding either the human Vla, the human Oxytocin (OTR) or the humanV2 receptor, the later in combination with the chimeric Gqs5 G protein to redirect the signal to Calcium flux. […] Calcium Flux Assays Using Fluorescent Imaging (Fluorometric Imaging Plate Reader, FLIPR) […]
Where a SMILES comes first, the peptide text is derived from it.
Property measured: hOT efficacy (%)
Give just the numeric value; % need not be written.

Ask: # return recorded hOT efficacy for input CCCC[C@H](NC(=O)[C@@H]1CCS(=O)(=O)CCC(=O)N[C@@H](Cc2ccc(O)cc2)C(=O)N[C@@H]([C@@H](C)CC)C(=O)N[C@@H](CCC(N)=O)C(=O)N[C@@H](CC(N)=O)C(=O)N1)C(=O)N[C@@H](CC(C)C)C(=O)NCC(N)=O [Example 24] (HELM PEPTIDE1{Y.I.Q.N.[O=C([C@H](CCS(=O)(=O)CCC(=O)[*:3])N[*:1])[*:2]].[Nle].L.G.[am]}$PEPTIDE1,PEPTIDE1,1:R1-5:R3$$$V2.0)
Result: 114

###

Target: human Oxytocin (OTR) receptor (Homo sapiens, UniProt P30559)
Test: Calcium flux assay (FLIPR) in CHO cells expressing human OTR
Settings: agonist mode, CHO cells, calcium flux FLIPR; read-out: hOT EC50
Where a SMILES comes first, the peptide text is derived from it.
Recorded measurements of EC50, one per entry
Quick reminder: number only, in nM, skip the unit.

# count of solved cases: 2
{"Compound": "CC[C@H](C)[C@@H]1NC(=O)[C@H](Cc2ccc(O)cc2)NC(=O)CCS(=O)(=O)CC[C@@H](C(=O)N2C[C@H](O)C[C@H]2C(=O)N[C@@H](CC(C)C)C(=O)NCC(N)=O)NC(=O)[C@H](CC(N)=O)NC(=O)[C@H](CCC(N)=O)NC1=O [Example 8] (HELM PEPTIDE1{Y.I.Q.N.[O=C([C@H](CCS(=O)(=O)CCC(=O)[*:3])N[*:1])[*:2]].[Hyp].L.G.[am]}$PEPTIDE1,PEPTIDE1,1:R1-5:R3$$$V2.0)", "Unit of measure": "nM", "EC50": 0.8}
{"Compound": "CC[C@H](C)[C@@H]1NC(=O)[C@H](Cc2ccc(O)cc2)NC(=O)CCS(=O)(=O)CC[C@@H](C(=O)N(C)CC(=O)N[C@H](C(=O)NCC(N)=O)C2CCCCC2)NC(=O)[C@H](CC(N)=O)NC(=O)[C@H](CCC(N)=O)NC1=O [Example 21] (HELM PEPTIDE1{Y.I.Q.N.[O=C([C@H](CCS(=O)(=O)CCC(=O)[*:3])N[*:1])[*:2]].[Sar].[O=C([C@@H](N[*:1])C1CCCCC1)[*:2]].G.[am]}$PEPTIDE1,PEPTIDE1,1:R1-5:R3$$$V2.0)", "Unit of measure": "nM", "EC50": 0.4}

Ask: // fetch EC50 given entry CC[C@H](C)[C@@H]1NC(=O)[C@H](Cc2ccc(O)cc2)NC(=O)CCS(=O)(=O)CC[C@@H](C(=O)N(C)CC(=O)N[C@@H](CCC(C)C)C(=O)NCC(N)=O)NC(=O)[C@H](CC(N)=O)NC(=O)[C@H](CCC(N)=O)NC1=O [Example 15] (HELM PEPTIDE1{Y.I.Q.N.[O=C([C@H](CCS(=O)(=O)CCC(=O)[*:3])N[*:1])[*:2]].[Sar].[CC(C)CC[C@H](N[*:1])C(=O)[*:2]].G.[am]}$PEPTIDE1,PEPTIDE1,1:R1-5:R3$$$V2.0)
Result: 1

###

Biological target: human Oxytocin (OTR) receptor (Homo sapiens, UniProt P30559)
Construct: expressed in transfected cells
Test: Calcium flux assay (FLIPR) in CHO cells expressing human OTR
Type: cell-based
Details: CHO; maximum response normalized to endogenous full agonist = 100%; read-out: hOT efficacy
*1 amine or outer side, *2 acyl side, *3 side chain or, on linkers, in order; H or OH if unused. Where a SMILES comes first, the peptide text is derived from it. Bridges are numbered along the chain shown (N, C = ends). [ ]: non-standard residue; d: D form. Hcy(O2-CH2CH2CO) = O=C([C@H](CCS(=O)(=O)CCC(=O)[*:3])N[*:1])[*:2]; αMeL = CC(C)C[C@](C)(N)C(=O)O; NcPrGly = O=C(O)CNC1CC1
Property measured: Emax (%)
Write down the numeric answer in % and omit the unit.

Some entries whose results are on file:
{"Compound": "CC[C@H](C)[C@@H]1NC(=O)[C@H](Cc2ccc(O)cc2)NC(=O)CCS(=O)(=O)CC[C@@H](C(=O)N(C)CC(=O)N[C@@H](CC2CCCCC2)C(=O)NCC(N)=O)NC(=O)[C@H](CC(N)=O)NC(=O)[C@H](CCC(N)=O)NC1=O [Example 11] (HELM PEPTIDE1{Y.I.Q.N.[O=C([C@H](CCS(=O)(=O)CCC(=O)[*:3])N[*:1])[*:2]].[Sar].[Cha].G.[am]}$PEPTIDE1,PEPTIDE1,1:R1-5:R3$$$V2.0; C-terminus assumed; bridges inferred)", "Endpoint result": 115}
{"Compound": "CC[C@H](C)[C@@H]1NC(=O)[C@H](Cc2ccc(O)cc2)NC(=O)CCS(=O)(=O)CC[C@@H](C(=O)N(C)CC(=O)N[C@@H](CC(C)C)C(=O)NCC(N)=O)NC(=O)[C@H](CC(N)=O)NC(=O)[C@H](CCC(N)=O)NC1=O [Example 2] (HELM PEPTIDE1{Y.I.Q.N.[O=C([C@H](CCS(=O)(=O)CCC(=O)[*:3])N[*:1])[*:2]].[Sar].L.G.[am]}$PEPTIDE1,PEPTIDE1,1:R1-5:R3$$$V2.0)", "Endpoint result": 107}

Ask: Tell me its Emax given CC[C@H](C)[C@@H]1NC(=O)[C@H](Cc2ccc(O)cc2)NC(=O)CCS(=O)(=O)CC[C@@H](C(=O)N(C)CC(=O)N[C@H](C(=O)NCC(N)=O)C2CCCCC2)NC(=O)[C@H](CC(N)=O)NC(=O)[C@H](CCC(N)=O)NC1=O [Example 21] (HELM PEPTIDE1{Y.I.Q.N.[O=C([C@H](CCS(=O)(=O)CCC(=O)[*:3])N[*:1])[*:2]].[Sar].[O=C([C@@H](N[*:1])C1CCCCC1)[*:2]].G.[am]}$PEPTIDE1,PEPTIDE1,1:R1-5:R3$$$V2.0) as the entry.
Result: 117

Ask: Dear colleague, please send me the reported Emax for CC[C@H](C)[C@@H]1NC(=O)[C@H](Cc2ccc(O)cc2)NC(=O)CCS(=O)(=O)CC[C@@H](C(=O)N[C@@H](CCO)C(=O)N[C@@H](CC(C)C)C(=O)NCC(N)=O)NC(=O)[C@H](CC(N)=O)NC(=O)[C@H](CCC(N)=O)NC1=O [Example 26] (HELM PEPTIDE1{Y.I.Q.N.[O=C([C@H](CCS(=O)(=O)CCC(=O)[*:3])N[*:1])[*:2]].[O=C([C@H](CCO)N[*:1])[*:2]].L.G.[am]}$PEPTIDE1,PEPTIDE1,1:R1-5:R3$$$V2.0) when you can.
Result: 140

Ask: State, in one line, measured Emax of CC[C@H](C)[C@@H]1NC(=O)[C@H](Cc2ccc(O)cc2)NC(=O)CCS(=O)(=O)CC[C@@H](C(=O)N(CC(=O)N[C@@](C)(CC(C)C)C(=O)NCC(N)=O)C2CC2)NC(=O)[C@H](CC(N)=O)NC(=O)[C@H](CCC(N)=O)NC1=O [Example 28] (YIQN[Hcy(O2-CH2CH2CO)][NcPrGly][αMeL]G-NH2; lactam N-5)
Result: 105
